- systemTested: CIB1 and αIIb interaction (CIB1-GST : F-αIIb peptide) (Homo sapiens, UniProt Q99828)
- Construct: made in house; host or cells: BL-21 plus RIL cells (E. coli)
- Sequence (Q99828 whole entry): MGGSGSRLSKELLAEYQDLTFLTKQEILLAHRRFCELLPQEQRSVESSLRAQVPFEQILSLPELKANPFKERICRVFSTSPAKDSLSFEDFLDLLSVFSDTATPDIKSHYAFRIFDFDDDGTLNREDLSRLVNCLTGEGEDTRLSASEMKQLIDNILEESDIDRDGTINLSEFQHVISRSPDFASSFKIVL
- methodNotes: FP assay, 1536-well qHTS format (primary and confirmatory screen)
- Format: binding
- experimentalParameters: qHTS primary screen hits, Table S2; negative = inhibition
reportedMetric: Efficacy (%)
Give just the numeric value; % need not be written.

CCc1nnc(Nc2ncnc3scc(-c4cccc(S(C)(=O)=O)c4)c23)s1.O=C(O)C(F)(F)F
-31
COC(=O)c1ccc(O)c2ncc(-c3ccc(C(=O)N4CCNCC4)cc3)cc12.O=C(O)C(F)(F)F
-45
Oc1ccccc1C1Nc2cccc3cccc(c23)N1
-42
Oc1ccc(Cl)c2cccnc12
-37

IN: Which Efficacy (%) is listed for Cc1cc(NS(=O)(=O)c2ccc(NC(=O)Cc3cccc4ccccc34)cc2)no1.O=C(O)C(F)(F)F ?
OUT: -21

IN: Which Efficacy (%) is listed for CNS(=O)(=O)c1ccc(Cc2c(-c3cccc(-c4ccccc4)c3)nn(-c3nc(C(=O)O)cs3)c2O)cc1.O=C(O)C(F)(F)F ?
OUT: -55

IN: Which Efficacy (%) is listed for Cc1ccnc(N(C)C(=S)N2CCN(c3cccc(C(F)(F)F)c3)CC2)c1.O=C(O)C(F)(F)F ?
OUT: -24

IN: Which Efficacy (%) is listed for Cl.NS(=O)(=O)c1cccc(Cc2c(-c3ccc(F)c(F)c3)nn(-c3nc(C(=O)O)cs3)c2O)c1 ?
OUT: -17

IN: Which Efficacy (%) is listed for Nc1ccc(O)c(C(=O)O)c1 ?
OUT: -58
